// data source = paper PMC11686114

- assay.target: T1, TRBV5-1 antigenic peptide No. 1 (…) conjugated to BSA (human)
- T1 sequence (peptide): TQTPRYLIKTRGQQ
- assay.procedure: ELISA; confirmatory monoclonal phage ELISA; antigens peptide alone, peptide-BSA, peptide-biotin; controls PBS, 10% BSA-PBS, PBS-streptavidin; phage dilution factors 1, 3, 9
Here, each record is paired with measured ELISA signal at phage dilution factor 3 data.

Answered examples (3):
binder	obs.value
scFv clone A8 (scFv, V domains shown, tested as phage clone in the confirmatory monoclonal ELISA; source: phage display clone from the human naive scFv library LiAb-SFMAX (Proteogenix), amplified in E. coli TG1) VH: QVQLVQSGPEMKKAGASVRVSCKGSGYTFSSFDINWVRQVPGQGLEWMGWMNPDTGNTGLAQKFQGRVTMTRDTSIRTAYMELRSLRSDDTAVYYCARDAPRNGRGMDVWGQGTMVTVSS VL: SYELTQPPSVSVSPGQTARITCSGDALPKQYAYWYQQKPGQAPVLVIYQDTKRPSGIPERFSGSSSGTTVTLTISGVQAEDEADYYCQSADSSGTYPVFGGGTKLTVL	4.2
scFv clone D5 (scFv, V domains shown, tested as phage clone in the confirmatory monoclonal ELISA; source: phage display clone from the human naive scFv library LiAb-SFMAX (Proteogenix), amplified in E. coli TG1) VH: QVQLVQSGAEVKKPGASVKVSCKPSGYYFNGYDITWVRQAIGQGLEWMGWMNPNSGNRDYAHQFQGRLTMTWDTSLSTAYLELNNLQSDDTAIYYCARERVSSGLDFWGQGTLVTVSS VL: SYELTQPPSVSVSPGQTARITCSGDALPKQYAYWYQQKPGQAPVLLIYKDSERPSGIPERFSGSSSGTTVTLTISGVQAEDEADYYCQSADSSGTYVVFGGGTQLTVL	3.56
scFv clone A5 (scFv, V domains shown, as printed identical to the VH of A2; tested as phage clone in the confirmatory monoclonal ELISA; source: phage display clone from the human naive scFv library LiAb-SFMAX (Proteogenix), amplified in E. coli TG1) VH: QVQLQQSGPGLVKPSQTLSLTCAISGDSVSSNSAAWNWIRQSPSRGLEWLGRTYYRSKWYNDYAVSVKSRITINPDTSKNQFSLQLNSVTPEDTAVYYCARDQAAAEVYFDYWGQGTLVTVSS VL: NFMLTQPHSVSESPGKTVTISCTRSSGSIASNYVQWYQQRPGSSPTTVIYEDNQRPSGVPDRFSGSIDSSSNSASLTISGLKTEDEADYYCQSYDSSNHWVFGGGTKVTVL	3.8

Could you now look at the following binder, please?
Please give the measured ELISA signal at phage dilution factor 3 for this binder: scFv clone C10 (scFv, V domains shown, tested as phage clone in the confirmatory monoclonal ELISA; source: phage display clone from the human naive scFv library LiAb-SFMAX (Proteogenix), amplified in E. coli TG1) VH: EVQLVQSGAEVKKPGSSVKVSCKASGGTFSSYAISWVRQAPGQGLEWMGGIIPIFGTANYAQKFQGRVTITADKSTSTAYMELSSLRSEDTAVYYCAREPLRGYSGYDFYYYGMDVWGQGTMVTVSS VL: SYELTQPHSVSGSPGETVTISCAGSGGSIASNYVQWYQQRPGSAPTTLIYEDKVRPSGVPDRFSGSIDYSSDSASLTISGLKTEDEADYYCQSADSTSTYVFGTGTKVTVL
3.55
